target: human mGluR2 receptor (Homo sapiens, UniProt Q14416); construct: expressed in transfected cells; host or cells: CHO cells (membranes); experiment: [35S]GTPγS binding assay, mGluR2 positive allosteric modulation (PAM); type: biochemical; details: membranes from CHO cells transfected with human mGluR2; in presence of glutamate at EC20; maximal % effect relative to the control glutamate response; read-out: GTPγS - hmGluR2 PAM Emax
Sequence (Q14416 19-872): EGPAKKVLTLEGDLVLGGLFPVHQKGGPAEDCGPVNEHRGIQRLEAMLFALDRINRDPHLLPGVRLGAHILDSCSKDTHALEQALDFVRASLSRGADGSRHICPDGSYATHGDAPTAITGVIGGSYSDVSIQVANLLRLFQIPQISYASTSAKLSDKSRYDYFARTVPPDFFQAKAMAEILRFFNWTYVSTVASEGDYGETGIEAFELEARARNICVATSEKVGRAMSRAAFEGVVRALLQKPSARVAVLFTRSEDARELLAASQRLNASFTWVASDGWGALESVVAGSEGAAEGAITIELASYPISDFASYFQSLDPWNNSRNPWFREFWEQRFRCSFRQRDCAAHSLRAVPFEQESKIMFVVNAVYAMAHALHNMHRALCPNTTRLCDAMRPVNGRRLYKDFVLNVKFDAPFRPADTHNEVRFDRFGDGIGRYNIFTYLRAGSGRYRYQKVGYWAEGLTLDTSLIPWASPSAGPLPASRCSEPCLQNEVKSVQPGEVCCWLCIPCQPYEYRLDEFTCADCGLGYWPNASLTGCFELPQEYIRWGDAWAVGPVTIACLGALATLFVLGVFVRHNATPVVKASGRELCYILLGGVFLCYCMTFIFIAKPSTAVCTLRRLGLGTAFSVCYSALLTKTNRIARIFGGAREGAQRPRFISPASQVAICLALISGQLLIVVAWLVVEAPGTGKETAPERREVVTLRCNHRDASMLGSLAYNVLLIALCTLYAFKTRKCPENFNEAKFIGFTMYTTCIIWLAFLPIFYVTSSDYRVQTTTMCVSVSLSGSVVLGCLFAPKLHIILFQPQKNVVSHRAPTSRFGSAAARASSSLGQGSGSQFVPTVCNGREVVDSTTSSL
outcome_measure: Emax (%)

> print(dat)
                                   molecule  outcome.measure  result.value
1  Cc1nnc2c(C(F)(F)F)c(CN3CCCC(C)(c4ccccc4)C3)ccn12 (single isomer, unassigned) [Compound 10]             Emax           193
2  FC(F)(F)c1c(CN2CCO[C@H](c3ccccc3)C2)ccn2c(CC3CC3)nnc12             Emax           267
3  Fc1ccc(N2CCN(Cc3ccn4c(CC5CC5)nnc4c3C(F)(F)F)C3CC32)c(F)c1 (racemic)             Emax           277
4  CN1CCN(Cc2ccn3c(CC4CC4)nnc3c2C(F)(F)F)CC1c1ccccc1 (single isomer, unassigned) [Compound 7a]             Emax           199
